System: CCRIS mutagenicity, Ames/micronucleus/aberration tests
assay-info: CCRIS mutagenicity studies
measurement-parameters: Test System: AMES SALMONELLA TYPHIMURIUM; Strain/Indicator: TA1537; Metabolic Activation: RAT, LIVER, S-9, AROCLOR 1254; Method: STANDARD PLATE
From the text: The CCRIS database contains chemical records with carcinogenicity, mutagenicity, tumor promotion, and tumor inhibition test results. It was developed by the National Cancer Institute (NCI). Data are derived from studies cited in primary journals, current awareness tools, NCI reports, and other sources. Test results have been reviewed by experts in carcinogenesis and mutagenesis. CCRIS provides historical information from the years 1985 - 2011. It is no longer updated. […]
Active and inactive are the calls of the source. How the calls were made is not given here.
Outcome (select one): class 1 = active, class 0 = inactive

A selection of reference data follows.
1) O=C(O)/C=C\C(=O)O; class 0
2) FC(F)(F)c1cccc(Cl)c1; class 0
3) O=C1c2cccc(S(=O)(=O)O)c2C(=O)c2cccc([N+](=O)[O-])c21; class 0
4) Nc1ccc(S(N)(=O)=O)cc1; class 0
5) O=c1[nH]c(=O)n([C@H]2C[C@H](O)[C@@H](CO)O2)cc1/C=C/Br; class 0

-- ask In this assay, the call recorded for "NC(=Nc1ccccc1)Nc1ccccc1" was what?
-- reply class 0

-- ask Also "C=CC(=O)OCCCCCC" , if possible.
-- reply class 0

-- ask Also "C=C(C)C(=O)OCCCCC" , if possible.
-- reply class 0

###

Tested on: CCRIS mutagenicity, Ames/micronucleus/aberration tests
assay-info: CCRIS mutagenicity studies
measurement-parameters: Test System: AMES SALMONELLA TYPHIMURIUM; Strain/Indicator: TA1537; Metabolic Activation: RAT LIVER S-9, PHENOBARBITAL AND BETA-NAPHTHOFLAVONE; Method: PREINCUBATION
Active and inactive are the calls of the source. The rule behind the calls is not given here.
Outcome (select one): yes (active), no (inactive)

A selection of reference data follows.
1) [B-]; no
2) NCCCCCCCCCCCC(=O)O; no
3) Cc1cc(-c2ccc(N=C=O)c(C)c2)ccc1N=C=O; no
4) CC(CO)(CO)CO; no
5) C=C(C)C(=O)OCCN(C)C; no

Alright, here's another compound for you.
-- ask In this assay, the call recorded for "O=Cc1ccccc1" was what?
-- reply no

###

Tested on: CCRIS mutagenicity, Ames/micronucleus/aberration tests
assay-info: CCRIS mutagenicity studies
measurement-parameters: Test System: AMES SALMONELLA TYPHIMURIUM; Strain/Indicator: TA100; Metabolic Activation: S-9; Method: STANDARD PLATE
The source made the active and inactive calls. The rule behind the calls is not given here.
Outcome (select one): active, inactive

A selection of reference data follows.
1. OC(Nc1snc2ccccc12)C(Cl)(Cl)Cl (stereo unspecified); inactive
2. CCC(=O)Nc1snc2ccccc12; inactive
3. CNC(=O)CSP(=S)(OC)OC; inactive
4. C[C@@H]1O[C@H](C)[C@@H](O)[C@H](O)[C@@H]1OS(=O)(=O)O; inactive

-- ask In this assay, the call recorded for "O=C(CCCl)N=c1sn(C(=O)CCCl)c2ccc(Cl)cc12" was what?
-- reply inactive

-- ask Also "Nc1ccc2sncc2c1" , if possible.
-- reply active

###

Tested on: CCRIS mutagenicity, Ames/micronucleus/aberration tests
assay-info: CCRIS mutagenicity studies
measurement-parameters: End Point: IN VITRO MICRONUCLEUS; Test System: CHL/IU CELLS; Metabolic Activation: RAT, LIVER, S-9, PHENOBARBITAL AND 5,6-BENZOFLAVONE
The source made the active and inactive calls. The rule behind the calls is not given here.
Outcome (select one): yes (1) (active), no (0) (inactive)

A selection of reference data follows.
1) O=P1(N(CCCl)CCCl)NCCCO1 (centres undefined); yes (1)
2) Oc1ccccc1; yes (1)
3) Nc1ccccc1; yes (1)

Alright, here's another compound for you.
-- ask In this assay, the call recorded for "Nc1cc(N)cc(C(=O)O)c1" was what?
-- reply no (0)

Hey, just so you know, these numbers are from PubChem BioAssay AID1259407.
